Protocol details: growth inhibitors of tim10-1 mutant yeast, confirmation, single concentration, luminescence, S. cerevisiae (AID 463213);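 also: tim10-1 mutant grown at permissive 25 °C to find synthetic lethal compounds; 0% = DMSO yeast wells and 100% = medium wells without yeast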
Particulars: S. cerevisiae tim10-1 ts strain growth, BacTiter-Glo, 24 h; at 20 µM; stronger effect = higher value
Hit rate of the full screen: of about 7,400 compounds, about 4,100 (55%) were called active. So high a share suggests a set chosen from earlier hits. A selection follows.
Recorded endpoint: inhibition (%)
Answers are plain numbers, in %.

Please give inhibition for each item listed below.
1. S=c1[nH]nc(CSCc2ccc(Cl)cc2Cl)n1-c1ccccc1
2. Cn1c(CCCOc2ccc(Cl)cc2Cl)n[nH]c1=S
3. CSc1ccc(S(=O)(=O)NC2CCCCC2)cc1
4. COC(=O)c1ccc(NC(=O)c2ccccc2NS(=O)(=O)c2ccccc2)cc1

1. 24.7
2. 17.5
3. 22.4
4. 19.4

Please give inhibition for each item listed below.
1. CCc1nc2ccc(C(=O)N3CCN(c4cccc(Cl)c4)CC3)cc2nc1CC
2. COc1ccc2nc(N3CCN(C(=O)c4ccc([N+](=O)[O-])o4)CC3)sc2c1
3. N#Cc1ccc(CSc2nnc(-c3ccccn3)n2-c2ccc(Cl)cc2)cc1

[24.6, -0.8, 30.9]

###

Protocol details: growth inhibitors of tim10-1 mutant yeast, confirmation, single concentration, luminescence, S. cerevisiae (AID 463213)
Particulars: S. cerevisiae tim10-1 ts strain growth, BacTiter-Glo, 24 h; at 20 µM; stronger effect = higher value
The campaign covered roughly 7,400 compounds. About 4,100 (55%) were called active. The set was probably picked from earlier hits. These entries were drawn from the full list.
# if value of inhibition reaches 40%, tag met; if it stays below, tag not met

Check the entry COc1ccc(C(=O)Nc2ccc(-n3nncc3C(C)(C)C)cc2)cc1 : does inhibition equal or exceed 40%?
not met

Check the entry Cc1cc(C)c(S(=O)(=O)c2ccccc2)c(OC(=O)c2c(F)cccc2Cl)n1 : does inhibition equal or exceed 40%?
met

Check the entry Cc1nnnn1/C(=C\c1ccccc1)C(=O)OCC(=O)N1CC2(C)CC1CC(C)(C)C2 (stereo unspecified) : does inhibition equal or exceed 40%?
met

Check the entry Cc1ccc(-c2csc(NC(=O)C3=COCCO3)n2)cc1C : does inhibition equal or exceed 40%?
not met

Check the entry Cc1ccc2nc(N(CCN(C)C)C(=O)C3=COCCO3)sc2c1 : does inhibition equal or exceed 40%?
not met

Check the entry Cc1nonc1C(=O)N/N=C/c1ccc(O)cc1 : does inhibition equal or exceed 40%?
met

###

Protocol details: growth inhibitors of tim10-1 mutant yeast, confirmation, single concentration, luminescence, S. cerevisiae (AID 463213)
Particulars: S. cerevisiae tim10-1 ts strain growth, BacTiter-Glo, 24 h; at 20 µM
The whole screen tested about 7,400 compounds, of which about 4,100 (55%) were called active.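 Rule for the calls: active = inhibition of yeast growth at or above a set limit in either of two repeat tests at 20 µM; inactive = the rest.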 So high a share suggests a set chosen from earlier hits. The list is a sample of the results.
Result category, one only: active, inactive

Look over these answered cases.
{"columns": ["Compound", "Cat"],
 "data": [
  ["O=C(c1ccccc1)N1CCC(CC2CC(c3ccc(Cl)cc3)=NO2)(C(=O)NCC2CCCCC2)CC1 (centres undefined)", "active"],
  ["O=C(Oc1c(-c2ccco2)oc2ccccc2c1=O)c1cccnc1", "active"],
  ["COc1ccc(C(=O)OCC(=O)c2cc(C)n(CC3CCCO3)c2C)cc1[N+](=O)[O-] (centres undefined)", "inactive"]
]}

Now consider the entry below.
Please let me know the test result on file for COc1ccc(Nc2nc(N)nc(CSC(=S)N3CCC(C)CC3)n2)cc1 .
inactive

###

Protocol details: growth inhibitors of tim10-1 mutant yeast, confirmation, single concentration, luminescence, S. cerevisiae (AID 463213)
Particulars: S. cerevisiae tim10-1 ts strain growth, BacTiter-Glo, 24 h; at 20 µM
About 4,100 (55%) of roughly 7,400 compounds were called active.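 How the source made its calls: active means inhibition of yeast growth at or above a set limit in either of two repeat tests at 20 µM; inactive means the rest.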 So high a share suggests a set chosen from earlier hits. A selection follows.
Result category, one only: Y = active, N = inactive

{"columns": ["Molecule", "Cat"],
 "data": [
  ["CCCN(CC1COc2ccccc2O1)C(=S)Nc1ccc(C)cc1 (centres undefined)", "Y"],
  ["COc1ccc(/C(N)=N/OC(=O)CCCc2ccccc2)cc1", "Y"],
  ["CC(C)CCNC(=O)c1ccc2c(Cl)c3c(nc2c1)CCC3", "Y"],
  ["COc1ccc(OC)c2sc(NC(=O)C3COc4ccccc4O3)nc12 (centres undefined)", "N"],
  ["COc1ccc(CS(=O)/C(Cl)=C(/Cl)C(=O)Nc2ccc(OC)nc2)cc1 (centres undefined)", "Y"]
]}

Please let me know the test result on file for C/C(=N\NC(=O)CNc1cccc2ccccc12)c1ccc(Br)s1 .
N

Please let me know the test result on file for CCc1ccc2oc(-c3ccc(N)cc3)nc2c1 .
Y

Please let me know the test result on file for N/C(=N\OC(=O)CCc1ccccc1)c1ccc(Cl)cc1 .
Y

Please let me know the test result on file for COc1ccc(/C(N)=N/OC(=O)Cc2ccccc2)cc1 .
N

Please let me know the test result on file for CNC(=O)c1csc(Cc2c(Cl)sc3ccc(Cl)cc23)n1 .
N

Please let me know the test result on file for CSC1=N/C(=C\C=C\c2cccs2)C(=O)S1 .
Y

Please let me know the test result on file for Cc1ccc(S/C(=N\S(=O)(=O)c2ccc(Cl)cc2)c2ccccc2)cc1 .
Y

Please let me know the test result on file for CCOC(=O)CSc1nc2c(c(=O)n(Cc3ccccc3Cl)c(=O)n2C)n1C .
N

Please let me know the test result on file for c1ccc(-c2nc(NCc3ccco3)c3ccccc3n2)cc1 .
Y

###

Protocol details: growth inhibitors of tim10-1 mutant yeast, confirmation, single concentration, luminescence, S. cerevisiae (AID 463213);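 also: tim10-1 mutant grown at permissive 25 °C to find synthetic lethal compounds; 0% = DMSO yeast wells and 100% = medium wells without yeast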
Particulars: S. cerevisiae tim10-1 ts strain growth, BacTiter-Glo, 24 h; at 20 µM
In all, about 7,400 compounds went through this assay and about 4,100 (55%) were called active.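 Rule for the calls: active = inhibition of yeast growth at or above a set limit in either of two repeat tests at 20 µM; inactive = the rest.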 So high a share suggests a set chosen from earlier hits. Only a sample is shown.
Result category, one only: y = active, n = inactive

Look over these answered cases.
{"columns": ["Compound", "Cat"],
 "data": [
  ["O=C(Nc1nnc(SCc2c(Cl)cccc2Cl)s1)C1CCCO1 (stereo unspecified)", "y"],
  ["CN(C)C(=O)c1ccc2c(c1)C1C3CCC(C3)C1C(c1ccccc1)N2 (stereo unspecified)", "n"],
  ["CCOC(=O)c1ccccc1CN1C(=O)c2ccccc2S1(=O)=O", "n"],
  ["CC1CCc2sc3nc(N4CCN(CCO)CC4)n4ncnc4c3c2C1 (stereo unspecified)", "n"],
  ["C[C@@H](NC(=O)OC(C)(C)C)c1nnc(S(=O)(=O)Cc2ccccc2)o1", "y"],
  ["C=CS(=O)c1sc(Cl)c(N2CCOCC2)c1[N+](=O)[O-] (stereo unspecified)", "y"]
]}

Please let me know the test result on file for Cc1[nH]n(-c2ccc([N+](=O)[O-])cc2)c(=O)c1C=NCCN1CCN(C(=O)c2ccccc2F)CC1 .
y

Please let me know the test result on file for O=C1c2ccccc2S(=O)(=O)N1CC(O)Cn1c2ccccc2c2ccccc21 (stereo unspecified) .
y

Please let me know the test result on file for CC1CCc2c(sc3nc4n(c(=O)c23)CCS4)C1 (stereo unspecified) .
y

Please let me know the test result on file for Cc1ccccc1CC1(CO)CCCN(C(=O)c2cc(-c3ccccc3)no2)C1 (stereo unspecified) .
n

Please let me know the test result on file for COc1cc(N=Cc2c(O)[nH]c3ccccc23)cc(OC)c1OC .
n

###

Protocol details: growth inhibitors of tim10-1 mutant yeast, confirmation, single concentration, luminescence, S. cerevisiae (AID 463213);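 also: tim10-1 mutant grown at permissive 25 °C to find synthetic lethal compounds; 0% = DMSO yeast wells and 100% = medium wells without yeast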
Particulars: S. cerevisiae tim10-1 ts strain growth, BacTiter-Glo, 24 h; at 20 µM; stronger effect = higher value
Out of some 7,400 compounds screened, about 4,100 (55%) were called active. So high a share suggests a set chosen from earlier hits. The list is a sample of the results.
# if value of inhibition reaches 20%, tag YES; if it stays below, tag NO

{"columns": ["Compound", "Cat"],
 "data": [
  ["COc1cc(NS(=O)(=O)c2ccc3ccccc3c2)c2ncccc2c1", "YES"],
  ["O=C(NCc1ccco1)c1cccn2c(=O)c3c4c(sc3nc12)CCCC4", "YES"],
  ["NC(=O)c1sc2nc3c(c(-c4ccccc4)c2c1N)CCC3", "NO"]
]}

Check the entry CCc1nn(CCCC(=O)Nc2ccc(C)cc2C)c(=O)c2cc3occc3n12 : does inhibition equal or exceed 20%?
NO

###

Protocol details: growth inhibitors of tim10-1 mutant yeast, confirmation, single concentration, luminescence, S. cerevisiae (AID 463213);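 also: tim10-1 mutant grown at permissive 25 °C to find synthetic lethal compounds; 0% = DMSO yeast wells and 100% = medium wells without yeast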
Particulars: S. cerevisiae tim10-1 ts strain growth, BacTiter-Glo, 24 h; at 20 µM
Hit rate of the full screen: of about 7,400 compounds, about 4,100 (55%) were called active.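 Rule for the calls: active = inhibition of yeast growth at or above a set limit in either of two repeat tests at 20 µM; inactive = the rest.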 So high a share suggests a set chosen from earlier hits. Not all results are given here.
Result category, one only: yes (1) = active, no (0) = inactive

{"columns": ["Compound", "Cat"],
 "data": [
  ["COc1ccc2c(c1)c(C(=O)N/N=C/c1cccs1)c(C)n2C", "no (0)"],
  ["Cc1cccc(CN2CCC(CNC(=O)Nc3ccc(F)c(Cl)c3)CC2)c1", "no (0)"],
  ["Nc1nc(-c2ccccc2)cc(-c2ccccc2)n1", "no (0)"]
]}

Now consider the entry below.
Please let me know the test result on file for O=C1OC(/C=C/c2ccccc2)=NC/1=C/c1ccco1 .
no (0)
